Target: UniProtKB P14416
Sequence (P14416 whole entry): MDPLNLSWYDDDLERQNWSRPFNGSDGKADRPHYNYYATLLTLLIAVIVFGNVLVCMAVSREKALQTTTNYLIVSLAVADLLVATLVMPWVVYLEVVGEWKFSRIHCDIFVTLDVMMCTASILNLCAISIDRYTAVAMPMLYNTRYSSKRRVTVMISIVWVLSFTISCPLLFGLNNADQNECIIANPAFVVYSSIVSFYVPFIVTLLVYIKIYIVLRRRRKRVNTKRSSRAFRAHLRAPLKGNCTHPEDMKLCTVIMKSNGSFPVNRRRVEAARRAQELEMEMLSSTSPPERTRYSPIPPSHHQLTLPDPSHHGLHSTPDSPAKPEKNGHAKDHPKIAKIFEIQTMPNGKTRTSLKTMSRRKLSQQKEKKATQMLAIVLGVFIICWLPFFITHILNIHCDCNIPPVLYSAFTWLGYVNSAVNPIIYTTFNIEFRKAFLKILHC
Where a name gives a salt, the structure may show the parent alone.
RECORDED_METRIC: Ki (nM)

Some solved entries appear below for comparison.
MOLECULE	RECORDED_METRIC	ENDPOINT_VALUE
Cc1ccc2c(c1O)C[C@@H](C1CCN(CCC(C)c3noc4cc(F)ccc34)CC1)O[C@H]2CN (some centres unmarked) [Example 104, dihydrochloride]	Ki	122
Cc1ccc2c(c1O)C[C@@H](C1CCN(C/C=C/c3ccccc3)CC1)O[C@H]2CN [Example 109, dihydrobromide]	Ki	212
Cc1cccc(CN2CCC([C@@H]3Cc4c(ccc(C)c4O)[C@H](CN)O3)CC2)c1 [Example 65, dihydrochloride]	Ki	288
Cc1ccc2c(c1O)C[C@@H](C1CCN(C(=O)Oc3ccc(Cl)cc3)CC1)O[C@H]2CN [Example 115, hydrochloride]	Ki	506

(P) Cc1ccc2c(c1O)C[C@@H](C1CCN(CCC(C)NC(=O)c3ccc(C(F)(F)F)cc3)CC1)O[C@H]2CN (some centres unmarked) [Example 16, dihydrochloride]
(Q) Cc1ccc2c(c1O)C[C@@H](C1CCN(S(=O)(=O)c3ccc4ccccc4c3)CC1)O[C@H]2CN [Example 147, hydrochloride]
# compare Ki for P vs Q ; return the one with the smaller value Answer format: the label of the selected item.
P
(P: 379 nM, Q: 623 nM)

====

Target: human dopamine D1 receptor (Homo sapiens, UniProt P21728)
Construct: A 1.4 Kb Hind III to Xho I fragment was subcloned into the vector pMMLV; expressed in transfected cells; host or cells: CHO cells, clone CHO-D1M#9 (plasmid pHD1MMLV), membranes
Sequence (P21728 whole entry, the tested form may be a part): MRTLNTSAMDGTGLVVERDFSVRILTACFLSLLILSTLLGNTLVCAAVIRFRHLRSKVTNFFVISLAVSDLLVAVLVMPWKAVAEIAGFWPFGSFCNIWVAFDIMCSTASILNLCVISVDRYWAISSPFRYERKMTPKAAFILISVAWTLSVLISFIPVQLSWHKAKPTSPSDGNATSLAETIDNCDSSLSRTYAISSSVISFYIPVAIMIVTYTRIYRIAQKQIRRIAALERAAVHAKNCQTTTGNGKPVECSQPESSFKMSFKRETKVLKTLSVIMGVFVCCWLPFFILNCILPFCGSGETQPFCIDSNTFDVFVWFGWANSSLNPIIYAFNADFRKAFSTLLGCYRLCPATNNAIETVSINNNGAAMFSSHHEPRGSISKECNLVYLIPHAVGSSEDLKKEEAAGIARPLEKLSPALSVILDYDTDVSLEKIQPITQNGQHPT
Experiment: [3H]-SCH-23390 binding to cloned human dopamine D1 receptors (CHO cell membranes)
Conditions: competitive binding, [3H]-SCH-23390, cloned human D1 in CHO membranes; read-out: D1 affinity Ki
Description: [^3H]-SCH-23390 Binding to Cloned Human Dopamine D1 Receptors Determination of relative binding affinity of potential neuropsychiatric and other agents for the human dopamine D1 receptor. The human D, cDNA was obtained from the laboratory of Dr. Marc Caron in the vector pCMV5. […] • 1. […] After the transfer to suspension culture, growth is monitored and cell viability is assessed using trypan blue exclusion. Total and viable cell count on 5 sectors of the hemocytometer are recorded. […]
pKi: −log10 of the molar value. Counter-ions that a name gives are not always drawn.
RECORDED_METRIC: pKi

Some solved entries appear below for comparison.
COMPOUND	pKi
Cc1ccc2c(c1O)C[C@@H](C1CCN(C3Cc4ccccc4C3)CC1)O[C@H]2CN [Example 32, dihydrobromide]	7.66
Cc1ccc2c(c1O)C[C@@H](C1CCN(S(=O)(=O)c3ccc(Cl)c(Cl)c3)CC1)O[C@H]2CN [Example 150, hydrochloride]	6.59
CCC(NC(=O)c1ccc(C)cc1)C(C)CN1CCC([C@@H]2Cc3c(ccc(C)c3O)[C@H](CN)O2)CC1 (stereo partly shown) [Example 14, dihydrochloride]	6.56
CCNC[C@@H]1O[C@H](C2CCN(CC(=O)c3ccccc3)CC2)Cc2c1ccc(C)c2O [Example 179]	6.86
Cc1ccc2c(c1O)C[C@@H](C1CCN(Cc3ccsc3)CC1)O[C@H]2CN [Example 67, dihydrochloride]	7.20

(1) Cc1ccc2c(c1O)C[C@@H](C1CCN(Cc3ccoc3)CC1)O[C@H]2CN [Example 71, hydrochloride]
(2) Cc1ccc2c(c1O)C[C@@H](C1CCN(Cc3ccc(C(C)C)cc3)CC1)O[C@H]2CN [Example 48, dihydrochloride]
# compare pKi for 1 vs 2 ; return the one with the smaller value Answer format: the label of the selected item.
1
(1: 7.03, 2: 7.43)
